biological target: Antrax lethal toxin (Bacillus anthracis) (UniProt P15917+P13423); settings: RAW264.7, at 25 µM
Calls of active or inactive are those of the source. The rule behind the calls is not given here.
metric: inhibition

>  <mol>
COc1cccc(/C=N/NC(=O)Nc2c(C)cccc2C)c1OC

>  <test-system>
Antrax lethal toxin (Bacillus anthracis) (UniProt P15917+P13423)

>  <metric>
inhibition

>  <result>
inactive

$$$$
>  <mol>
Cc1cccc(C)c1NC(=O)N/N=C/c1ccncc1

>  <test-system>
Antrax lethal toxin (Bacillus anthracis) (UniProt P15917+P13423)

>  <metric>
inhibition

>  <result>
inactive

$$$$
>  <mol>
O=C(N/N=C/c1ccc(Cl)cc1)Nc1ccccc1

>  <test-system>
Antrax lethal toxin (Bacillus anthracis) (UniProt P15917+P13423)

>  <metric>
inhibition

>  <result>
inactive

$$$$
